Data origin: PubChem BioAssay (NCI)

System: XF 498 CNS
Assay: NCI tumour cell line growth inhibition, 48 h
measurement kind: TGI

[Q] Give TGI for the following compound: `COC(=O)CCC(=O)CC(=O)C1=NS(=O)(=O)c2nc(S(N)(=O)=O)c(Cl)cc2N1`
[A] > 100 µM

[Q] Give TGI for the following compound: C/C(=N\NS(=O)(=O)c1ccc(C)cc1)C(CN1CCOCC1)C(c1ccccc1)c1c(O)c2ccccc2oc1=O (centres undefined)
[A] > 100 µM

[Q] Give TGI for the following compound: `O=C(O)CCCCCCC[C@@H]1S[C@H]1CCCCCCO`
[A] > 100 µM

[Q] Give TGI for the following compound: `CCCCCCCCCCCCCC(=O)O[C@H]1CC[C@H](NC(=O)[C@H](OC)[C@H](O)[C@@H](O)[C@H](O)/C=C/C(C)C)C(=O)NC1`
[A] 0.305 µM
